This collection of values is drawn from the EternaBench riboswitch data.

# Test system: MS2 coat protein
# MEASUREMENT PROTOCOL: apparent Kd, MS2 coat protein; higher = weaker binding; RNA-MaP array; FMN 200 µM where present
# TEST PARAMETERS: ligand present: flavin mononucleotide; designed as: OFF switch for flavin mononucleotide
Use fulfilled when the recorded apparent Kd is no lower than 20 nM; use not fulfilled when it is lower.

{"SEQUENCE TEXT": "CCUCCCUGAGGAUAUCCACCCUCAUACAUGAGGAUCACCCAUGUUCAACCCUGGGUUCCCGGAGAAGGCAGCUUCC", "TARGET SYSTEM": "MS2 coat protein", "CATEGORY LABEL": "fulfilled"}
{"SEQUENCE TEXT": "UUUUAGUCAGGAUAUACAUGAGGAUCACCCAUGUAAAAUUUUAGUUUAAUUUGAAUGUGUAGAAGGGACAUUUU", "TARGET SYSTEM": "MS2 coat protein", "CATEGORY LABEL": "fulfilled"}
{"SEQUENCE TEXT": "UUGUUUUUUGAGGAUAUGCGACGUUUUUUCGUCGUAGAAGGCGAUACAUGAGGAUCACCCAUGUUUAUGGGCAU", "TARGET SYSTEM": "MS2 coat protein", "CATEGORY LABEL": "fulfilled"}
{"SEQUENCE TEXT": "GUGUACAGAGGAUAUGCUGGAAUCUAGCGAAGCUAGGUUCCACAUGAGGAUCACCCAUGUAGAAGGCUGUACAC", "TARGET SYSTEM": "MS2 coat protein", "CATEGORY LABEL": "not fulfilled"}
{"SEQUENCE TEXT": "CUAUGAAGAAUAGGAUAUUCGAUCAUGAGGAUAGAAGAAGGGUUACAUGAGGAUCACCCAUGUAUGCACAUGAGGAUCCCUUAG", "TARGET SYSTEM": "MS2 coat protein", "CATEGORY LABEL": "fulfilled"}
{"SEQUENCE TEXT": "ACAUUUUAUGCAGGAUAUUGACAUAGGAUUAAACAAGAAGGGCAUUACAUGAGGAUCACCCAUGUUUUAUUGGUAUAUAAGUUC", "TARGET SYSTEM": "MS2 coat protein", "CATEGORY LABEL": "not fulfilled"}
